Listed below: IC50 values for each entry.
- experimental target: Recombinant (1-346) HPK1 (h) (Homo sapiens)
- Construct: Recombinant (1-346) HPK1 (h) is incubated with 8 mM MOPS pH 7.0
- Sequence (Q92918 1-346): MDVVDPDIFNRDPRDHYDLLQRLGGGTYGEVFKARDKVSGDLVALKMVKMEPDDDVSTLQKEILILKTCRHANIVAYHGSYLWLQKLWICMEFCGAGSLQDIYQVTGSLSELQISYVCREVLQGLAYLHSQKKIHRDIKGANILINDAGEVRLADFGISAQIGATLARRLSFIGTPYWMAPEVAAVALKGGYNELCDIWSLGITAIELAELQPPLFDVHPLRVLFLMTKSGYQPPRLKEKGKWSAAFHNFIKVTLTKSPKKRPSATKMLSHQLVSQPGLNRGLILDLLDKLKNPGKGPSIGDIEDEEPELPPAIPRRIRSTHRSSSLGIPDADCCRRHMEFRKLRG
- experiment notes: HPK1 Human STE Kinase Enzymatic Radiometric Assay
- Format: biochemical
- conditions: read-out: HPK1 IC50 nM Range*

Guide cases for IC50, answers given:
                                   molecule                       experimental_target  measurement_name        result
0  CC(=O)N1CCN(c2ccc(-c3cc(-c4ccc5c(c4)CCNC5=O)c(N)nc3F)nc2)CC1  Recombinant (1-346) HPK1 (h) (Homo sapiens)              IC50  0.1 to 10 nM
1  CC(C)N1CCC(c2ccc(-c3cc(-c4ccc5c(c4)CCNC5=O)c(N)nc3F)cc2)CC1  Recombinant (1-346) HPK1 (h) (Homo sapiens)              IC50  0.1 to 10 nM

If you can, please state the reported IC50 value of CN(C)Cc1cc(-c2cc(-c3ccc4c(c3)CCNC4=O)c(N)nc2F)c(F)c(F)c1N1CCOCC1 .
11 to 100 nM

# iterate: Cc1c[nH]c(=O)c2ccc(-c3cc(-c4ccc(N5CCN(C6CCC6)CC5)cc4)c(F)nc3N)cc12
0.1 to 10 nM

And Nc1nc(F)c(-c2ccc(C3CCN(C4COC4)CC3)cc2)cc1-c1ccc2c(c1)CCNC2=O ?
0.1 to 10 nM

Would you kindly repeat that for CC(C)N1CCN(c2ccc(-c3cc(-c4ccc5c(=O)[nH]c(N(C)C)nc5c4)c(N)nc3F)cc2)CC1 ?
101 to 1000 nM

====

- experimental target: Recombinant (1-346) HPK1 (h) (Homo sapiens, UniProt Q92918)
- Construct: Recombinant (1-346) HPK1 (h) is incubated with 8 mM MOPS pH 7.0
- experiment notes: HPK1 Human STE Kinase Enzymatic Radiometric Assay
- Format: biochemical
- conditions: read-out: HPK1 IC50 nM Range*
Catalogue of IC50 readings, one per entry.

# query: IC50 | item Nc1nc(F)c(-c2ccc(C3CCCCN3CC(F)F)cc2)cc1-c1ccc2c(c1)CCNC2=O (centres unmarked) [I-101] | system: Recombinant (1-346) HPK1 (h) (Homo sapiens, UniProt Q92918)
11 to 100 nM

Lookup CN(C)Cc1cc(-c2cc(-c3ccc4c(c3)CCNC4=O)c(N)nc2F)ccc1OCC1CCOCC1 [I-532]
11 to 100 nM

Quick one: CC(C)N1CCN(c2ccc(-c3cc(-c4ccc5c(c4)CC(CN(C)C)NC5=O)c(N)nc3F)cc2)CC1 (centres unmarked) [I-310]
11 to 100 nM

Then Cc1c[nH]c(=O)c2ccc(-c3cc(-c4ccc(N5CCN(C(C)C)CC5)cc4)c(F)nc3N)cc12 [I-378] ?
0.1 to 10 nM

Request: CO[C@@H]1CCN(Cc2cc(-c3cc(-c4cc5c(cc4F)C(=O)NCC5)c(N)nc3F)ccc2N2CCOCC2)C1 [I-564]
11 to 100 nM
